protocol.notes: self-splicing fitness, log relative to wild type (ln ratio); higher = more splicing; Tetrahymena group I intron in knt gene, E. coli kanamycin selection, DiMSum; sequences stand for … in CUCUCU…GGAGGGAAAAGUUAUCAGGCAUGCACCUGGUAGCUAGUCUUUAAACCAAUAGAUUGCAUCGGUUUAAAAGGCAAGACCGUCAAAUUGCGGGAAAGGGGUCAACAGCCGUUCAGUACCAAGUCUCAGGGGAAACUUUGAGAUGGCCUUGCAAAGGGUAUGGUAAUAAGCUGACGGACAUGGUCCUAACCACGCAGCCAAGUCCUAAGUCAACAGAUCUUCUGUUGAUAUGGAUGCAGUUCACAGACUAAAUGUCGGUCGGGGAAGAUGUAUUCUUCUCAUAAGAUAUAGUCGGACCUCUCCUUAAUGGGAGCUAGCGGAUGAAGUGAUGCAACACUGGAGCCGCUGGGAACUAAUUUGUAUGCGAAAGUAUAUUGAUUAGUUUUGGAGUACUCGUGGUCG;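 also: selection with 25 µg/mL kanamycin versus none on LB agar overnight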
cond: 37 °C
property.name: self-splicing fitness (ln)

Use the examples below as a reference point.
>  <primary.sequence>
ACUUAGCAAUAUUACGAAUA

>  <self-splicing fitness (ln)>
-1.76

$$$$
>  <primary.sequence>
UGAUAGCAAUAUUACGUUUA

>  <self-splicing fitness (ln)>
-0.742

$$$$
>  <primary.sequence>
GUAAAGCAAUAUUACGCAGU

>  <self-splicing fitness (ln)>
-1.06

$$$$

Entry CUUCAGCAAUAUUACGACGA : reported self-splicing fitness (ln) = ?
-1.54

How about AACCAGCAAUAUUACGCGAA ?
-0.99

Now consider CACGAGCAAUAUUACGUGAC and answer again.
-2.44

Now this one: UCGGAGCAAUAUUACGAAUG
-2.15

Same question for UUCUAGCAAUAUUACGGGGG please.
-2.09
